- Tested on: H1-HeLa cells
- method.description: Cytotoxicity (CC50) in mock-infected H1-HeLa cells, XTT dye reduction
- Format: cell-based, human
- conditions.used: line of HRV-23
# CC50 annotations

compound: CCOC(=O)/C=C/[C@H](C[C@@H]1CCNC1=O)NC(=O)[C@H](CC)n1cccc(NC(=O)c2cc(C)on2)c1=O [Compound 26]
CC50: > 10 µM
--
compound: C#CC[C@@H](C(=O)N[C@H](/C=C/C(=O)OCC)C[C@@H]1CCNC1=O)n1cccc(NC(=O)c2cc(C)on2)c1=O [Compound 31]
CC50: > 10 µM
--
compound: C#CC[C@@H](C(=O)N[C@H](/C=C/C(=O)OC1CCC1)C[C@@H]1CCNC1=O)n1cccc(NC(=O)c2cc(C)on2)c1=O [Compound 53]
CC50: > 10 µM
--
compound: Cc1cc(C(=O)Nc2cccn([C@@H](Cc3ccc(F)c(F)c3)C(=O)N[C@H](/C=C/C(=O)OC(C)C)C[C@@H]3CCNC3=O)c2=O)no1 [Compound 48]
CC50: > 10 µM
--
compound: CCOC(=O)/C=C/[C@H](C[C@@H]1CCNC1=O)NC(=O)[C@H](Cc1ccc(F)c(F)c1)n1cccc(NC(=O)c2cc(C)on2)c1=O [Compound 33]
CC50: > 10 µM
--
compound: Cc1cc(C(=O)Nc2cccn([C@@H](Cc3ccc(F)c(F)c3)C(=O)N[C@H](/C=C/C(=O)OC(C)(C)C)C[C@@H]3CCNC3=O)c2=O)no1 [Compound 46]
CC50: > 10 µM
--
compound: C#CC[C@@H](C(=O)N[C@H](/C=C/C(=O)OC1CCCC1)C[C@@H]1CCNC1=O)n1cccc(NC(=O)c2cc(C)on2)c1=O [Compound 40]
CC50: > 10 µM

Origin of values: patent US6514997B2
